# TESTED ON: CDK9/cyclin T1 (Homo sapiens, UniProt P50750)
# Sequence (O60563 whole entry): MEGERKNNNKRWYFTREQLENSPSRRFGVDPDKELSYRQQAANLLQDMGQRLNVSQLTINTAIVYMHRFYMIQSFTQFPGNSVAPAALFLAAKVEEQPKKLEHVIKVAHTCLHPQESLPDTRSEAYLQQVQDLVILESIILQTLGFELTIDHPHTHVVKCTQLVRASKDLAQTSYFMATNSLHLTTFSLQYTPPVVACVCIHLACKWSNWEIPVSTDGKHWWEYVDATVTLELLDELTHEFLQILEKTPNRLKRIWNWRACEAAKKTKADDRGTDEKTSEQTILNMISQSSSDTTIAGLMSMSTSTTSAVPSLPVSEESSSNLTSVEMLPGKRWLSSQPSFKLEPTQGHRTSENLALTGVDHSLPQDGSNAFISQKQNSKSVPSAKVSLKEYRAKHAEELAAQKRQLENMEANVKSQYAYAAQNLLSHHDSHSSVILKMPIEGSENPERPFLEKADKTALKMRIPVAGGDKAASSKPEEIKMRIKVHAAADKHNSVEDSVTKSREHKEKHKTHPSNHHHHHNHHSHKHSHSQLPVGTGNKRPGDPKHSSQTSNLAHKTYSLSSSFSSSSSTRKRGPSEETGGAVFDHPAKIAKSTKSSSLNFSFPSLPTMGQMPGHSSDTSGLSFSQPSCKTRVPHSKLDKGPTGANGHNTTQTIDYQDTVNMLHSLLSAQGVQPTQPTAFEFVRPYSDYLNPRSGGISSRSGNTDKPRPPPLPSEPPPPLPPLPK
# Sequence (P50750 whole entry): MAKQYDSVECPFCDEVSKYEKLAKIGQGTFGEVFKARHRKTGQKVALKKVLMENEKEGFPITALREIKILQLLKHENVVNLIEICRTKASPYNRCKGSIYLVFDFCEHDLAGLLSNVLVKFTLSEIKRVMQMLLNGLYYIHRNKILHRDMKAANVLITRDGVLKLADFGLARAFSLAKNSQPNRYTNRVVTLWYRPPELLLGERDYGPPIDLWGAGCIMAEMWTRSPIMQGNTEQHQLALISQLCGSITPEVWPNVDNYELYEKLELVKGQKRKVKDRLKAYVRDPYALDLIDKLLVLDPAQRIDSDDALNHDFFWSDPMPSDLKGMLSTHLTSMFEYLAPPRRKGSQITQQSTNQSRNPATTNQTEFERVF
# MEASUREMENT DESCRIPTION: Binding affinity to His-tagged human CDK9/CycT1 assessed as dissociation constant incubated for 90 mins by TR-FRET assay
MEASURED QUANTITY: Kd (nM)
Give the value, in units of nM, as a plain number.

Summary for this molecule, Cc1cc(C)n2c1C=C1C=CC(CCC(=O)N3CCC(C(=O)Nc4ncc(SCc5ncc(C(C)(C)C)o5)s4)CC3)=[N+]1[B-]2(F)F : Kd is 5.1

* * *

# TESTED ON: Calcium/calmodulin-dependent protein kinase kinase 2 (Homo sapiens, UniProt Q96RR4)
# Sequence (Q96RR4 whole entry): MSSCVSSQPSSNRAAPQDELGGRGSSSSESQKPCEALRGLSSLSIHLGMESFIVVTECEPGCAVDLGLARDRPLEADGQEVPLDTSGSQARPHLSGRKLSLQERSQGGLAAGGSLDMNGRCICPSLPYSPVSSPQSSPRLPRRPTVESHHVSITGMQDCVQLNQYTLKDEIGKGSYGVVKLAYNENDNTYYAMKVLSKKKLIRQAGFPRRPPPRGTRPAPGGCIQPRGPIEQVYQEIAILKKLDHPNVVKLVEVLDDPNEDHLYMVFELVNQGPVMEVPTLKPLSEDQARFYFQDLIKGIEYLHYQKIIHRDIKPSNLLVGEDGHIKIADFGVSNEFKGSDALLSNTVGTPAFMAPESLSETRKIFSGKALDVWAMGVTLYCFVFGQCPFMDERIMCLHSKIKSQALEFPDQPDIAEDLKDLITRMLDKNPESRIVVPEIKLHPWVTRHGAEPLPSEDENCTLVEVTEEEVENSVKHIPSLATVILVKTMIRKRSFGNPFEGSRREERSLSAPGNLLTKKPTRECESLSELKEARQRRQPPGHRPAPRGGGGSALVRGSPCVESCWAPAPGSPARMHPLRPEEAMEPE
# MEASUREMENT DESCRIPTION: Binding affinity to GST-tagged human CAMKK2 assessed as dissociation constant incubated for 90 mins by TR-FRET assay
MEASURED QUANTITY: pKd
A value of pKd is the negative decimal logarithm of a concentration given in moles per litre.

Summary for this compound, Cc1cc(C)n2c1C=C1C=CC(CCC(=O)N3CCC(C(=O)Nc4ncc(SCc5ncc(C(C)(C)C)o5)s4)CC3)=[N+]1[B-]2(F)F : pKd is 6.28
